Assayed Target: NK2 (Homo sapiens, UniProt P21452)
Sequence (P21452 whole entry): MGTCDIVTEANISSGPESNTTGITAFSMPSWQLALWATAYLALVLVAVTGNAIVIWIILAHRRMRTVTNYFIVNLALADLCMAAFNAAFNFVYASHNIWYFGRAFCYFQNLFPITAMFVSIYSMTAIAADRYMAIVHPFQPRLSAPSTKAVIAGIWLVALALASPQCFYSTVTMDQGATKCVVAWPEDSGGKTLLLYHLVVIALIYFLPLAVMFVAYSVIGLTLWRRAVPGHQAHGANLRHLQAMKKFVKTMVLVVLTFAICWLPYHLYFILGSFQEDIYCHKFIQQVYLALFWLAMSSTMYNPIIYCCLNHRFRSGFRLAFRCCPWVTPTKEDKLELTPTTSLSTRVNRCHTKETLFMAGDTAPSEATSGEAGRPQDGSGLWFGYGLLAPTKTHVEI
Assay Overview: Signal transduction (ST), intracellular Ca++ (FLIPR), NK2
Type: cell-based
Test Settings: read-out: pIC50 NK2 (converted)
Parameter: IC50 (µM)

N#Cc1ccc(C(=O)N2CCCC(N3CCN([C@H]4CCN(C(=O)c5cc(C(F)(F)F)cc(C(F)(F)F)c5)[C@H](Cc5ccccc5)C4)CC3)C2)cc1 (stereo partly drawn) = 3.98
O=C(c1ccc(CCO)s1)N1CCCC(N2CCN(C3CCN(C(=O)c4cc(C(F)(F)F)cc(C(F)(F)F)c4)C(Cc4ccccc4)C3)CC2)C1 (stereo not drawn) = 5.01
O=C(C1CCCC1)N1CCCC(N2CCN(C3CCN(C(=O)c4cc(C(F)(F)F)cc(C(F)(F)F)c4)C(Cc4ccccc4)C3)CC2)C1 (stereo not drawn) = 3.16
O=C(c1sccc1CO)N1CCCC(N2CCN([C@H]3CCN(C(=O)c4cc(C(F)(F)F)cc(C(F)(F)F)c4)[C@H](Cc4ccccc4)C3)CC2)C1 (stereo partly drawn) = 3.98

(I) O=C(c1cccc(O)c1)N1CCCC(N2CCN([C@H]3CCN(C(=O)c4cc(C(F)(F)F)cc(C(F)(F)F)c4)[C@H](Cc4ccccc4)C3)CC2)C1 (stereo partly drawn)
(II) Cc1ccccc1S(=O)(=O)N1CCCC(N2CCN([C@H]3CCN(C(=O)c4cc(C(F)(F)F)cc(C(F)(F)F)c4)[C@H](Cc4ccccc4)C3)CC2)C1 (stereo partly drawn)
When their IC50 values are compared, which is larger, I or II ? State the label of the item chosen.
I

---

Assayed Target: UniProt:P29371
Assay Overview: Signal transduction (ST), intracellular Ca++ (FLIPR), NK3
Type: cell-based
Test Settings: read-out: pIC50 NK3 (converted)
Parameter: IC50 (nM)

CC1(C(=O)N2CCCC(N3CCN([C@H]4CCN(C(=O)c5cc(C(F)(F)F)cc(C(F)(F)F)c5)[C@H](Cc5ccccc5)C4)CC3)C2)CC1 (some centres unmarked) = 2000
O=C(c1cc(C(F)(F)F)cc(C(F)(F)F)c1)N1CC[C@H](N2CCN(C3CCCN(S(=O)(=O)c4ccc(-c5ccccn5)s4)C3)CC2)C[C@H]1Cc1ccccc1 (some centres unmarked) = 2000
O=C(c1cc(C(F)(F)F)cc(C(F)(F)F)c1)N1CC[C@H](N2CCN(C3CCCN(S(=O)(=O)c4ccc(COCc5ccccc5)s4)C3)CC2)C[C@H]1Cc1ccccc1 (some centres unmarked) = 7940

(P) Cn1cnc(C(=O)N2CCCC(N3CCN([C@H]4CCN(C(=O)c5cc(C(F)(F)F)cc(C(F)(F)F)c5)[C@H](Cc5ccccc5)C4)CC3)C2)c1 (some centres unmarked)
(Q) Cc1cc(C(=O)N2CCCC(N3CCN([C@H]4CCN(C(=O)c5cc(C(F)(F)F)cc(C(F)(F)F)c5)[C@H](Cc5ccccc5)C4)CC3)C2)n(C)n1 (some centres unmarked)
Which record shows the lower IC50: the first, P , or the second, Q ? // return label of chosen record
Q
(Q: 2510 nM, P: 6310 nM)

---

Assayed Target: NK3 (Homo sapiens, UniProt P29371)
Sequence (P29371 whole entry): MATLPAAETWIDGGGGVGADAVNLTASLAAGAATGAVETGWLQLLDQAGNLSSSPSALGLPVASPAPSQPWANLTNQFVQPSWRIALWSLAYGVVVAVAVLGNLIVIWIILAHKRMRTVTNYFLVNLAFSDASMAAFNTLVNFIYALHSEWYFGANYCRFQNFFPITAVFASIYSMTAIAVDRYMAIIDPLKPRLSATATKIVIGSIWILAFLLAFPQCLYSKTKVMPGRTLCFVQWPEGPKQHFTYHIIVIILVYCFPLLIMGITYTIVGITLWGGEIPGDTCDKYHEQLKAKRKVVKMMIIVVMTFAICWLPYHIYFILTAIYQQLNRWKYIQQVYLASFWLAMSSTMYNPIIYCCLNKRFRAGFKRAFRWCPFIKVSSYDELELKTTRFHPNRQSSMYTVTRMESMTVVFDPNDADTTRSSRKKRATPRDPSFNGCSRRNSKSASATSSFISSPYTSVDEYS
Assay Overview: Signal transduction (ST), intracellular Ca++ (FLIPR), NK3
Type: cell-based
Test Settings: read-out: pIC50 NK3 (converted)
Parameter: IC50 (µM)

Some solved entries appear below for comparison.
COc1ccc(C)cc1S(=O)(=O)N1CCCC(N2CCN([C@H]3CCN(C(=O)c4cc(C(F)(F)F)cc(C(F)(F)F)c4)[C@H](Cc4ccccc4)C3)CC2)C1 (some centres unmarked) = 3.16
O=C(c1cc(C(F)(F)F)cc(C(F)(F)F)c1)N1CCC(N2CCN(C3CCCN(S(=O)(=O)Cc4ccccc4)C3)CC2)CC1Cc1ccccc1 (centres unmarked) = 0.316
O=C(C(=O)N1CCCC(N2CCN(C3CCN(C(=O)c4cc(C(F)(F)F)cc(C(F)(F)F)c4)C(Cc4ccccc4)C3)CC2)C1)c1ccco1 (centres unmarked) = 3.98
O=C(c1ccoc1)N1CCCC(N2CCCN(C3CCN(C(=O)c4cc(C(F)(F)F)cc(C(F)(F)F)c4)C(Cc4ccccc4)C3)CC2)C1 (single isomer, unassigned) = 3.98
O=C(c1cc(C(F)(F)F)cc(C(F)(F)F)c1)N1CC[C@H](N2CCN(C3CCCN(C(CO)c4ccsc4)C3)CC2)C[C@H]1Cc1ccccc1 (some centres unmarked) = 1.58
O=C(c1cccc(O)c1)N1CCCC(N2CCN([C@H]3CCN(C(=O)c4cc(C(F)(F)F)cc(C(F)(F)F)c4)[C@H](Cc4ccccc4)C3)CC2)C1 (some centres unmarked) = 1.26

(a) O=C(c1cc(C(F)(F)F)cc(C(F)(F)F)c1)N1CC[C@H](N2CCN(C3CCCN(S(=O)(=O)c4csc(COCc5ccccc5)c4)C3)CC2)C[C@H]1Cc1ccccc1 (some centres unmarked)
(b) O=C(c1cc(C(F)(F)F)cc(C(F)(F)F)c1)N1CC[C@H](N2CCN(C3CCCN(S(=O)(=O)c4ccc(O)c(F)c4)C3)CC2)C[C@H]1Cc1ccccc1 (some centres unmarked)
Between a and b , which one has the lower reported IC50 value? # reply format: chosen label
a

(P) CC(C)(C)OC(=O)N1CCCC1C(=O)N1CCCC(N2CCN(C3CCN(C(=O)c4cc(C(F)(F)F)cc(C(F)(F)F)c4)C(Cc4ccccc4)C3)CC2)C1 (centres unmarked)
(Q) O=C(OCc1ccccc1C(=O)N1CCCC(N2CCN([C@H]3CCN(C(=O)c4cc(C(F)(F)F)cc(C(F)(F)F)c4)[C@H](Cc4ccccc4)C3)CC2)C1)c1ccccc1 (some centres unmarked)
Consider entries P and Q . Which has the numerically lower IC50? Reply briefly: the label of your chosen item.
P

---

Assayed Target: NK3 (Homo sapiens)
Assay Overview: Signal transduction (ST), intracellular Ca++ (FLIPR), NK3
Type: cell-based
Test Settings: read-out: pIC50 NK3 (converted)
Parameter: IC50 (nM)

Worked set:
O=C(c1ccccc1Cl)N1CCCC(N2CCN([C@H]3CCN(C(=O)c4cc(C(F)(F)F)cc(C(F)(F)F)c4)[C@H](Cc4ccccc4)C3)CC2)C1 (stereo partly drawn) = 501
O=C(c1ccco1)N1CCCC(N2CCN([C@H]3CCN(C(=O)c4cc(C(F)(F)F)cc(C(F)(F)F)c4)[C@H](Cc4ccccc4)C3)CC2)C1 (stereo partly drawn) = 2510

(A) Cc1nc(S(=O)(=O)N2CCCC(N3CCN([C@H]4CCN(C(=O)c5cc(C(F)(F)F)cc(C(F)(F)F)c5)[C@H](Cc5ccccc5)C4)CC3)C2)cn1C (stereo partly drawn)
(B) O=C(c1cc(C(F)(F)F)cc(C(F)(F)F)c1)N1CC[C@H](N2CCN(C3CCCN(S(=O)(=O)c4ccccc4)C3)CC2)C[C@H]1Cc1ccccc1 (stereo partly drawn)
Please state the entry with greater IC50 among A and B . Identify your selection by its label.
B

(1) O=C(c1cc(C(F)(F)F)cc(C(F)(F)F)c1)N1CCC(N2CCN(C3CCCN(C(CO)c4cccs4)C3)CC2)CC1Cc1ccccc1 (stereo not drawn)
(2) Cc1ccccc1S(=O)(=O)N1CCCC(N2CCN([C@H]3CCN(C(=O)c4cc(C(F)(F)F)cc(C(F)(F)F)c4)[C@H](Cc4ccccc4)C3)CC2)C1 (stereo partly drawn)
(3) O=C(c1cc(C(F)(F)F)cc(C(F)(F)F)c1)N1CC[C@H](N2CCN(C3CCCN(S(=O)(=O)c4ccsc4)C3)CC2)C[C@H]1Cc1ccccc1 (stereo partly drawn)
(4) Cc1occc1C(=O)N1CCCC(N2CCN([C@H]3CCN(C(=O)c4cc(C(F)(F)F)cc(C(F)(F)F)c4)[C@H](Cc4ccccc4)C3)CC2)C1 (stereo partly drawn)
Sort entries by IC50 from minimum to maximum value. Form entry: labels listed in requested order.
3, 2, 4, 1

---

Assayed Target: NK2 (Homo sapiens)
Assay Overview: Signal transduction (ST), intracellular Ca++ (FLIPR), NK2
Type: cell-based
Test Settings: read-out: pIC50 NK2 (converted)
Parameter: IC50 (nM)

CC(C)NC(=O)N1CCCC(N2CCN(C3CCN(C(=O)c4cc(C(F)(F)F)cc(C(F)(F)F)c4)C(Cc4ccccc4)C3)CC2)C1 (stereo not drawn) = 3160
CC(C)N/C(=N\C#N)N1CCCC(N2CCN(C3CCN(C(=O)c4cc(C(F)(F)F)cc(C(F)(F)F)c4)C(Cc4ccccc4)C3)CC2)C1 (stereo not drawn) = 1000

(I) Cc1nc(C)c(S(=O)(=O)N2CCCC(N3CCN([C@H]4CCN(C(=O)c5cc(C(F)(F)F)cc(C(F)(F)F)c5)[C@H](Cc5ccccc5)C4)CC3)C2)s1 (stereo partly drawn)
(II) O=C(c1cc(C(F)(F)F)cc(C(F)(F)F)c1)N1CCC(N2CCN(C3CCCN(S(=O)(=O)c4ccc(O)cc4)C3)CC2)CC1Cc1ccccc1 (stereo not drawn)
(III) O=C(OCc1ccccc1C(=O)N1CCCC(N2CCN([C@H]3CCN(C(=O)c4cc(C(F)(F)F)cc(C(F)(F)F)c4)[C@H](Cc4ccccc4)C3)CC2)C1)c1ccccc1 (stereo partly drawn)
(IV) O=C(c1ccc(O)cc1)N1CCCC(N2CCN(C3CCN(C(=O)c4cc(C(F)(F)F)cc(C(F)(F)F)c4)C(Cc4ccccc4)C3)CC2)C1 (stereo not drawn)
Arrange the 4 entries by IC50 so the values rise. List the labels, following the order given in the request.
I, II, III, IV
(I: 200 nM, II: 794 nM, III: 3160 nM, IV: 5010 nM)
